Test: Metabolic stability in human liver microsome assessed as intrinsic clearance measured upto 45 mins in presence of NADPH by LC-MS/MS analysis
Format: ADME
Conditions: liver microsomes, read-out: CLH
PROPERTY: CLint scaled (mL/min/kg)

I = O=C(c1ccc(F)cc1)C1CCN(CCn2c(=O)[nH]c3ccccc3c2=O)CC1 [KETANSERIN]
II = COc1ccc(/C=C/C(=O)c2ccc(O)c(O)c2)cc1OCC1CC1
Hi! Which is lower in terms of CLint scaled, the first one I or the second one II ? Bench note: the answer is the label of the chosen record.
II

----------
Target: Phosphodiesterase 4 (Homo sapiens, UniProt P27815+Q08499+Q07343+Q08493)
Assay: Inhibition of PDE4 (unknown origin) using fluorescein-cAMP as substrate incubated for 45 mins by fluorescence polarization assay
Type: protein assay
PROPERTY: IC50 (nM)

See these solved cases before continuing.
COc1ccc(/C=C/C(=O)c2ccc(O)c(O)c2)cc1OCC1CC1 ... 1560
COc1ccc(/C=C/C(=O)c2ccc(O)c(O)c2)cc1OC1CCCC1 ... 1820
COc1ccc(/C=C/C(=O)c2ccc(O)c(O)c2)cc1OC(C)C ... 1530

a = COc1ccc(/C=C/C(=O)c2ccc(O)c(O)c2)cc1OC
b = CCOc1cc(/C=C/C(=O)c2ccc(O)c(O)c2)ccc1OC
Hi! Which is lower in terms of IC50, the first one a or the second one b ? Bench note: the answer is the label of the chosen record.
b
